Parameter koff: see the listing below.
target: T1, human-CD40 monomer (human, UniProt P25942 21-193, limits assumed)
T1 construct: also called hCD40-monomer; human-CD40-monomer protein
T1 sequence (P25942 21-193 limits assumed): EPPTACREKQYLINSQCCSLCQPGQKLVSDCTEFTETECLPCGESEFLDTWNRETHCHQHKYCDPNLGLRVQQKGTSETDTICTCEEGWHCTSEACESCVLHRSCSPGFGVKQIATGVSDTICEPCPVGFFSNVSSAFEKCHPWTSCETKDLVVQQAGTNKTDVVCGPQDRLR
assay.overview: SPR 2 pt screen, Ab on protein A
The figure you give is taken to be in s⁻¹; do not add the unit.

Observe how each entry below is paired with its result.
binder	koff (s⁻¹)
humanized Y1238 hz7 (hz-HC2 / hz-LC2), IgG1.3f (antibody, V domains shown, IgG1.3f heavy constant, common CL; expression supernatant; also called Sup 7) VH: QVQLVQSGAEVKKPGASVKVSCKASGYAFTNYLIEWVRQAPGQGLEWMGVINPGSGGTNYNEKFKGRVTMTADTSISTAYMELSRLRSDDTAVYYCARSQLGRRFDYWGQGTLVTVSS VL: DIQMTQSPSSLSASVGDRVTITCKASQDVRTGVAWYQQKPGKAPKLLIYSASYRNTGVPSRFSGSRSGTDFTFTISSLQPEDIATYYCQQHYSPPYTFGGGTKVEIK	0.00011
humanized Y1238 hz47 (hz-HC10 / hz-LC2), IgG1.3f (antibody, V domains shown, IgG1.3f heavy constant, common CL; expression supernatant; also called Sup 47) VH: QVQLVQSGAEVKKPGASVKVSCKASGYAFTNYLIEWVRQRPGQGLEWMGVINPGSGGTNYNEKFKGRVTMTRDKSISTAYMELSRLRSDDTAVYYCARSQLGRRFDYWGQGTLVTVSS VL: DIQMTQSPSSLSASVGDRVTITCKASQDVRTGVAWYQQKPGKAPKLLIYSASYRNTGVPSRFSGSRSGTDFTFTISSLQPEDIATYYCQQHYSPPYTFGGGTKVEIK	0.00032
humanized Y1238 hz18 (hz-HC4 / hz-LC3), IgG1.3f (antibody, V domains shown, IgG1.3f heavy constant, common CL; expression supernatant; also called Sup 18) VH: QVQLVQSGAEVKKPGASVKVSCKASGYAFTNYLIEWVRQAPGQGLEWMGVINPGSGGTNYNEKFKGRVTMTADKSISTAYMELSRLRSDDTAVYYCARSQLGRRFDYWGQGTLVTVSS VL: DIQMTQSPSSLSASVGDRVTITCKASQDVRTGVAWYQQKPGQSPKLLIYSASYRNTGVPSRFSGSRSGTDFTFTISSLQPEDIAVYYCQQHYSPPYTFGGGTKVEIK	0.00035
humanized Y1238 hz46 (hz-HC10 / hz-LC1), IgG1.3f (antibody, V domains shown, IgG1.3f heavy constant, common CL; expression supernatant; also called Sup 46) VH: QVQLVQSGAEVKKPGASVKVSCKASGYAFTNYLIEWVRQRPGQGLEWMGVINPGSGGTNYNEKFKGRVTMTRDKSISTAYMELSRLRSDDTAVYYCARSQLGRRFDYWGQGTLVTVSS VL: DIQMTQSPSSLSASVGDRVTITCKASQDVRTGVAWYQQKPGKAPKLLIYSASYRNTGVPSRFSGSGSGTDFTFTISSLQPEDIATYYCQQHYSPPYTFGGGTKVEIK	0.0002

Here's the next entry for you.
Query block: Query (binder): humanized Y1238 hz40 (hz-HC8 / hz-LC5), IgG1.3f (antibody, V domains shown, IgG1.3f heavy constant, common CL; expression supernatant; also called Sup 40) VH: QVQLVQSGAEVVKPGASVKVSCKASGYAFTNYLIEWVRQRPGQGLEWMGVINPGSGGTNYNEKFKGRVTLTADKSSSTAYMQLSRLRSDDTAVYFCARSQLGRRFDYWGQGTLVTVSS VL: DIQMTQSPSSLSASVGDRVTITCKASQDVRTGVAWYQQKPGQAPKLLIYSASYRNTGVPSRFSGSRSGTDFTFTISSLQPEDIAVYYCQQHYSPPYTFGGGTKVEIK ; field requested: koff
Result block: 0.00026
